Task for the reader: assign each of the following molecules its reported ka.
Biological target: dGA (SEQ ID NO: 5) (Homo sapiens, UniProt P10636)
Sequence (P10636 614-707): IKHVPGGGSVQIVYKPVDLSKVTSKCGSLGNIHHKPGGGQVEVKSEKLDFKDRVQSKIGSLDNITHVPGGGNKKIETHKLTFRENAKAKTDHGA
Experiment: Biacore X100 SPR kinetics of scAbs for dGA
Type: binding
Details: Table 24; scAb, dGA analyte
Entry rule: numbers only, all in M⁻¹ s⁻¹.

Prompt line: Recorded ka for S1G2: sheep-derived anti-tau core clone; scFv SEQ ID NO: 81, VH 455, VL 456 (protein, S1G2 amino acid sequence) scFv: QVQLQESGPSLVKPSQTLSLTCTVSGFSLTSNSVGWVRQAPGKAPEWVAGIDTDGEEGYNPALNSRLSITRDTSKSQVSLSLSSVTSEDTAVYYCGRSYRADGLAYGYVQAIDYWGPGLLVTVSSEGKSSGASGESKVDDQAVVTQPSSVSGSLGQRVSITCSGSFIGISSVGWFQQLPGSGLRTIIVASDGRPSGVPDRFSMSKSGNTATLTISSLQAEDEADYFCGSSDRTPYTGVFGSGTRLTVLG , please?
Response line: 783000

Prompt line: // returns reported ka for input CE2: anti-tau core clone, Table 10; SEQ ID NO: 366 (protein, CE2/E1B8 amino acid sequence) scFv: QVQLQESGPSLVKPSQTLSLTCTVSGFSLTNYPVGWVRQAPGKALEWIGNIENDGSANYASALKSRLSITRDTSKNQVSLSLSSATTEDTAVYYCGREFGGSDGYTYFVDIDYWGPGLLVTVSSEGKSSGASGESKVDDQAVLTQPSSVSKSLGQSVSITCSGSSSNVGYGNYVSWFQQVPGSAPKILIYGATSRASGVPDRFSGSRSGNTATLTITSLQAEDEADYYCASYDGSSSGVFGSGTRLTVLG
Response line: 137000

Prompt line: Which value of ka has been reported for S1D12: sheep-derived anti-tau core clone; scFv SEQ ID NO: 32, VH 443, VL 444 (protein, S1D12 amino acid sequence) scFv: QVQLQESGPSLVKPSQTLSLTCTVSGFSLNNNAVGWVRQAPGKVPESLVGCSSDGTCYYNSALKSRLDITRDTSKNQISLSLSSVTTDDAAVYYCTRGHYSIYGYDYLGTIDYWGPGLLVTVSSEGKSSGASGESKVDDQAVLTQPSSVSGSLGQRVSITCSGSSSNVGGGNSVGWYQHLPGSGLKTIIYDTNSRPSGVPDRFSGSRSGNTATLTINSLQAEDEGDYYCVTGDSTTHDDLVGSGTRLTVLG in the records?
Response line: 1.21e+06

Prompt line: Dear colleague, I am looking for the recorded ka of the following molecule: NS2A1: anti-tau clone, Table 11; SEQ ID NO: 220 (protein, NS2A1 amino acid sequence) scFv: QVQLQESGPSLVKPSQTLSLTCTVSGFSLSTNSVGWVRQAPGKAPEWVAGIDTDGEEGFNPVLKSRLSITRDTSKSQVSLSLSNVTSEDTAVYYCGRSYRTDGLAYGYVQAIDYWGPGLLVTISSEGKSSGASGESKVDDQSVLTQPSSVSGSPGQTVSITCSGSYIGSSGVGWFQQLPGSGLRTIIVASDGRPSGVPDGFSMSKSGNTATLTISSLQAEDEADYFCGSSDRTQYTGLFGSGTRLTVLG
Response line: 188000

Prompt line: Give the measured ka of S1E12: anti-tau clone, Table 11; SEQ ID NO: 218 (protein, S1E12 amino acid sequence) scFv: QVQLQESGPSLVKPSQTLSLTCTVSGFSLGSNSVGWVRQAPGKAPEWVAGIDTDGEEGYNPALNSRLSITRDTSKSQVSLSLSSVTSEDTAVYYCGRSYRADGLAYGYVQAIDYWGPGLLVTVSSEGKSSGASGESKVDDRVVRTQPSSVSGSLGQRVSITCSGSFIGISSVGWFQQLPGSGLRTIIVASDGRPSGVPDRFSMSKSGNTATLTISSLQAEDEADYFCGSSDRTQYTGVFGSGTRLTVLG .
Response line: 2.99e+06
